TARGET_OR_SYSTEM: T1, human CD3 on T-cell lines (CD3-expressing Jurkat cells; HUT78 cells) (human, UniProt P07766 23-207)
T1 construct: On cells it stands in the CD3/TCR complex
T1 sequence (P07766 23-207 limits assumed): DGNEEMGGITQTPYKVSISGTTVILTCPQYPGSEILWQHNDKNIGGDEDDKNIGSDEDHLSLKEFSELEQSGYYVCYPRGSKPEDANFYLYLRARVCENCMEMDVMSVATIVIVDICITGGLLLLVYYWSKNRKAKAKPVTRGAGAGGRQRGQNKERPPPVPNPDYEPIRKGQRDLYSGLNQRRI
ASSAY_METHOD_TEXT: flow cytometry, HUT78 cells
MEASUREMENT_LABEL: Kd (nM)
Give a bare numeral; the unit nM is implied.

q: Need Kd of SRP 2037-B10 F104D/R97D (antibody, human IgG1, lambda, V domains shown, human IgG1, lambda) VH: EVQLVESGGGLVKPGGSLRLSCAASGFTFNKYAMNWVRQAPGKGLEWVARIRTKYNNYATYYADSVKDRFTISRDDSKNTAYLQMNSLKTEDTAVYYCVRHGNDGNSYISYWAYWGQGTPVTVSS VL: QTVVTQEPSLTVSPGGTVTLTCGSSTGAVTSGYYPNWLQQKPGQAPRGLIGGTKFLAPGTPARFSGSLLGGKAALTLSGVQPEDEAEYYCALWYSNDWVFGGGTQLTVTG , thanks.
a: 126

q: Need Kd of 2037-B10_Hc-Y61D (antibody, human IgG1, lambda, V domains shown, human IgG1, lambda; also called SRP 2037 Y61D; 2037-B10_VH-Y61D) VH: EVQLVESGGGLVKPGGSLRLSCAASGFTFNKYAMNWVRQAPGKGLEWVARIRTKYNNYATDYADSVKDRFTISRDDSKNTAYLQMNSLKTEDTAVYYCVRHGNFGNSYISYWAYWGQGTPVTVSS VL: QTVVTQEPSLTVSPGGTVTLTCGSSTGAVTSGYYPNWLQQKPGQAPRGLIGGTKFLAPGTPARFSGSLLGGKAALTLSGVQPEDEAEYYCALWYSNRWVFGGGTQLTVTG , thanks.
a: 18.8

q: Need Kd of 2037-B10_Hc-F104D (antibody, human IgG1, lambda, V domains shown, human IgG1, lambda; also called SRP 2037 F104D; 2037-B10_VH-F104D) VH: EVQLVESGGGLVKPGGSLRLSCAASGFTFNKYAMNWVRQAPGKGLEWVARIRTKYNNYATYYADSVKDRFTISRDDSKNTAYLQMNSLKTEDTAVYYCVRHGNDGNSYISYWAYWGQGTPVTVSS VL: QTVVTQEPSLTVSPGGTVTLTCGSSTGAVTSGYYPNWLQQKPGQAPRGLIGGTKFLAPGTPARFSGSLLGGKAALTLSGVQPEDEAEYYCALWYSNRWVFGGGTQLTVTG , thanks.
a: 23

q: Need Kd of SRP 2037-B10 F104D/LC6 (antibody, human IgG1, kappa, V domains shown, human IgG1, kappa) VH: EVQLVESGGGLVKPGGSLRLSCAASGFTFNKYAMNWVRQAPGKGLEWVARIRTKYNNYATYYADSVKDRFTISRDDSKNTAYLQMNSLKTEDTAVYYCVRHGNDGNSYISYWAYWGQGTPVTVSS VL: DIQMTQSPSSLSASVGDRVTITCGSSTGAVTSGYYPNWLQQKPGQAPRGLIGGTKFLAPGVPSRFSGSLSGGKATLTISSLQPEDFATYYCALWYSNRWVFGGGTKVEIKR , thanks.
a: 24.6

q: Need Kd of SRP 2037-B10 Y61D/LC6 (antibody, human IgG1, kappa, V domains shown, human IgG1, kappa) VH: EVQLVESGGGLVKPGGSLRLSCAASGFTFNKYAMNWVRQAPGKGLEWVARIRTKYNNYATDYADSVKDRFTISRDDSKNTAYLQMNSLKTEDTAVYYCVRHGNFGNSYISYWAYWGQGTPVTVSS VL: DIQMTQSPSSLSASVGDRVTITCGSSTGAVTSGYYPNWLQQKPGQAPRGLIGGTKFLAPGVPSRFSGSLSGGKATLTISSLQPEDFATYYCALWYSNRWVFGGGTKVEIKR , thanks.
a: 6.61
